- System tested: T1, soluble human ILT2-ECD (human, UniProt Q8NHL6 24-461)
- T1 construct: also called LILRB1 extracellular domain
- T1 sequence (Q8NHL6 24-461): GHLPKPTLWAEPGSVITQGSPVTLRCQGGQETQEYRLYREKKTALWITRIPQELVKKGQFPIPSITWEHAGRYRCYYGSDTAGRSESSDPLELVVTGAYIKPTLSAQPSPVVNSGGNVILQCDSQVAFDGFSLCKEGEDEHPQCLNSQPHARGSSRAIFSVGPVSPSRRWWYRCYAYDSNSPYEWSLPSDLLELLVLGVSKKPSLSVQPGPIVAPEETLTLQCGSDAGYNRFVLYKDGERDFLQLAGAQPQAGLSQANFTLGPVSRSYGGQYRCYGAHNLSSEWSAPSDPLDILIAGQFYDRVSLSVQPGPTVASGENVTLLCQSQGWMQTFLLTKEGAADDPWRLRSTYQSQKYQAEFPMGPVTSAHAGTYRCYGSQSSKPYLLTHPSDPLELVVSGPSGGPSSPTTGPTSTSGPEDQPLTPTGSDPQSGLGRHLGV
- Assay overview: SPR (Biacore) as described in Example 3
- Method: The binding affinities of anti-ILT2 and anti-ILT4 antibodies were measured using a Biacore system (GE Healthcare LifeSciences). Equilibrium dissociation constant (KD) measurements were carried out with purified antibodies to evaluate their binding to human ILT2, human ILT4, and rhesus ILT2. […] The binding affinities of the humanized antibodies to human ILT2 and human ILT4 were measured using a Biacore system as described herein. […]
Kd listing for selected binders.
Expressed in nM, but write only the number.

Use the examples below as a reference point.
Binder | Kd / nM
humanized anti-ILT2/ILT4 antibody Hz47H6.v2 (antibody, human IgG1, kappa, N297G, V domains shown) VH: QVQLVQSGAEVKKPGASVKVSCKASGYTFTDYYMNWVRQAPGQRLEWIGDFNPNNAGTTYNQKFEGRVTITVDKSASTAYMELSSLRSEDTAVYYCARGRFYYGSLYSFDYWGQGTLVTVSS VL: DIQMTQSPSSLSASVGDRVTITCRASGNIHNYLAWYQQKPGKAPKLLIYNAKTLADGVPSRFSGSGSGTDFTLTISSLQPEDFATYYCQHFWTSITFGPGTKVDIKR | 4
humanized anti-ILT2/ILT4 antibody Hz73D1.v1 (antibody, human IgG1, kappa, N297G, V domains shown, Human IgG1 constant region with G at position 297, human kappa; also called Hz73D1.vi) VH: QVQLVQSGAEVKKPGASVKVSCKASGYTFTDYYINWVRQAPGQGLEWMGNVNPNDGGTTYNQKFKGRVTMTTDTSTSTAYMELRSLRSDDTAVYYCARREIYFYGTIYYYAMDYWGQGTLVTVSS VL: DIQLTQSPSFLSASVGDRVTITCRASESVDYYGNSFMYWYQQKPGKAPKLLIYFASNLESGVPSRFSGSGSGTEFTLTISSLQPEDFATYYCQQNNEDPWTFGGGTKVEIKR | 3
anti-ILT2/ILT4 antibody 73D1 (antibody, V domains shown, Mouse hybridoma antibody; Shares its light chain variable region with 73C4) VH: AVQLQQSGPELVKPGASVKISCKASGYTFTDYYINWVKQSHGKSLQWIGNVNPNDGGTTYNQKFKGKATLTVDKSSSTAYMELRSLTSEDSAVYYCARREIYFYGTIYYYAMDYWGQGTSVTVSS VL: DIVLTQSPASLAVSLGQRATISCRASESVDYYGNSFMYWYQQKPGRPPNLLIYFASNLESGVPARFSGSGSRTDFTLTIDPVEADDAATYYCQQNNEDPWTFGGGTKLEIK | 1.8

// fetch Kd given entry anti-ILT2/ILT4 antibody 47H6 (antibody, V domains shown, Mouse hybridoma antibody) VH: EVQLQQSGPELVKPGASVKISCKASGYTFTDYYMNWVKQSHGKSLEWIGDFNPNNGGTTYNQKFEGKATLTVDKSSNTAYMDLRSLTSEDSAVYYCARGRFYYGSLYSFDYWGQGTTLTVSS VL: DIQMTQSPASLSASVGETVTITCRASGNIHNYLAWYQQKQGKSPHLLVYNAKTLADGVPSRFSGSGSGTQYSLKINNLQPEDFGSYYCQHFWTSITFGAGTKLDLK
0.2
